# protocol.text: qHTS assay to identify small molecule agonists of the androgen receptor (AR) signaling pathway in the presence of an antagonist - cell viability counter screen (AID 1259379); note: nearly all actives have a fitted effect of over 25% in size
# experimental.context: MDA-kb2 viability, CellTiter-Fluor, 16 h; series mostly up to 92.4 µM
# Description: National Center for Advancing Translational Sciences [NCATS] NIH Chemical Genomics Center [NCGC] U.S. Environmental Protection Agency [EPA] National Institutes of Environmental Health Sciences [NIEHS] National Toxicology Program [NTP] U.S. Food and Drug Administration [FDA] Androgen receptor (AR) is an important member of nuclear receptor family. Its signaling plays a critical role in AR-dependent prostate cancer and other androgen related diseases. […]
Results filed as inconclusive are left out. Activity calls are given as the source filed them. Calls come from the whole dose curve; as a rule, active = well fitted cell-killing curve with a large enough effect in the repeat runs; inconclusive = weak or mixed curves, or effect the other way; inactive = flat fitted curve, though single readings scatter.
Respond only with the outcome that fits, drawn from active, inactive

Req: Hey, what did the test say about CC[C@H]1CN2CCc3cc(OC)c(OC)cc3[C@@H]2C[C@@H]1C[C@H]1NCCc2cc(OC)c(OC)cc21 ?
Resp: active

Req: Hey, what did the test say about O=C(OCc1ccccc1)c1ccc(O)cc1 ?
Resp: inactive

Req: Hey, what did the test say about CC(=O)C1=C(C)[C@@H]2C[C@@]3(C1)[C@H](C)CC[C@H]3C2(C)C ?
Resp: inactive

Req: Hey, what did the test say about COC(=O)c1cccc(C(=O)OC)c1 ?
Resp: inactive

Req: Hey, what did the test say about CCN1CCCC1CNC(=O)c1cc(S(=O)(=O)CC)c(N)cc1OC (centres undefined) ?
Resp: inactive

Req: Hey, what did the test say about CC[C@]1(O)C[C@@H]2CN(CCc3c([nH]c4ccccc34)[C@@](C(=O)OC)(c3cc4c(cc3OC)N(C)[C@H]3[C@@](O)(C(=O)OC)[C@H](OC(C)=O)[C@]5(CC)C=CCN6CC[C@]43[C@@H]65)C2)C1 ?
Resp: inactive

Req: Hey, what did the test say about C=CS(=O)(=O)O ?
Resp: inactive

Req: Hey, what did the test say about O=C(O)c1cccc(C(=O)O)c1 ?
Resp: inactive

Req: Hey, what did the test say about CCCCCCCCCCCCc1ccccc1O ?
Resp: active

Req: Hey, what did the test say about CCCNC(C)C(=O)Nc1ccccc1C (centres undefined) ?
Resp: inactive

Req: Hey, what did the test say about C=C(C)C(=O)O ?
Resp: inactive

Req: Hey, what did the test say about COc1cc(C(=S)N2CCOCC2)ccc1O ?
Resp: inactive

Req: Hey, what did the test say about CC(C(O)c1ccc(O)cc1)N1CCC(Cc2ccccc2)CC1 (centres undefined) ?
Resp: inactive

Req: Hey, what did the test say about O=C(O)CCc1ccccc1 ?
Resp: inactive

Req: Hey, what did the test say about CCC(C)(C)C(=O)O[C@H]1C[C@@H](C)C=C2C=C[C@H](C)[C@H](CC[C@@H]3C[C@@H](O)CC(=O)O3)[C@H]21 ?
Resp: inactive

Req: Hey, what did the test say about COC(c1ccccc1)(c1ccccc1)[C@H](Oc1nc(C)cc(C)n1)C(=O)O ?
Resp: inactive

Req: Hey, what did the test say about CCC(=O)/C=C/C1C(C)=CCCC1(C)C (centres undefined) ?
Resp: inactive

Req: Hey, what did the test say about CC(C)(O)CCC(C)(C)O ?
Resp: inactive

Req: Hey, what did the test say about CC1COC(=O)O1 (centres undefined) ?
Resp: inactive

====

# tested.system: Cytochrome P450 1A2 (Homo sapiens) (UniProt P05177)
# Sequence (P05177 whole entry, looked up): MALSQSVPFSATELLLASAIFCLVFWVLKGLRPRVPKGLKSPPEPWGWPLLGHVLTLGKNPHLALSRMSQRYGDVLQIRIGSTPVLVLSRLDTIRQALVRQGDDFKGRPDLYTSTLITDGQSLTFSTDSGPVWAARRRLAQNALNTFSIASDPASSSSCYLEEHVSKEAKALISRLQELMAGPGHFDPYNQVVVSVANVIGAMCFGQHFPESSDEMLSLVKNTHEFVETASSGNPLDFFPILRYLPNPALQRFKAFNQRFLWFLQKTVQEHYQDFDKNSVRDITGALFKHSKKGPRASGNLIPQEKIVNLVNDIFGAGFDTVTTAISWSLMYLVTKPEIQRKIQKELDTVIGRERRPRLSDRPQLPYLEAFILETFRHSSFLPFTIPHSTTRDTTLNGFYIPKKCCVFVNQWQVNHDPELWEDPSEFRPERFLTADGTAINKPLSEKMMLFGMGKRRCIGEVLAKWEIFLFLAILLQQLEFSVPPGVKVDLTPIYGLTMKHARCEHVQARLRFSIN
# protocol.text: Cytochrome P450 Family 1 Subfamily A Member 2 (CYP1A2) small molecule antagonists: luciferase reporter qHTS assay (AID 1671199); note: nearly all actives have a fitted effect of over 50% in size; note: potency is the fitted concentration of half-maximal effect
# experimental.context: P450-Glo CYP1A2 enzyme, luciferin luminescence, 1 h; series mostly up to 53 µM
Results filed as inconclusive are left out. Calls of active or inactive are those of the source. The call rests on the fitted dose curve; in most records, active means well fitted inhibition curve with a large enough effect in the repeat runs; inconclusive means weak or mixed curves; inactive means no such curve, though single readings can be large or run the other way. Starred links: 1 amine or outer side, 2 acyl side, 3 side chain; linkers in the order of their positions; H or OH if unused. Positions of bridges follow the written chain, without caps; N, C: chain ends. Non-standard residues stand in square brackets, D forms with d. Residues, ends and D or L forms follow the SMILES beside them. Chains are numbered I, II in the order given. Actinocin(9to1) = Cc1c2oc3c(C)ccc(C(=O)[*:1])c3nc-2c(C(=O)[*:2])c(N)c1=O; NMeV = CN[C@H](C(=O)O)C(C)C; Sar = CNCC(=O)O
measure.name: Potency

Below, each entry is followed by its recorded Potency result.
molecule=NCCO tested_system="Cytochrome P450 1A2 (Homo sapiens) (UniProt P05177)" obs_value="9.47 µM (active)"
molecule=CC(C)C(=O)c1c(C(C)C)nn2ccccc12 tested_system="Cytochrome P450 1A2 (Homo sapiens) (UniProt P05177)" obs_value="2.57 µM (active)"
molecule=Cc1cc(C2(c3cc(C)c(O)cc3C)OS(=O)(=O)c3ccccc32)c(C)cc1O tested_system="Cytochrome P450 1A2 (Homo sapiens) (UniProt P05177)" obs_value="31.7 µM (active)"
molecule=O=C1OC2(c3ccc(O)cc3Oc3cc(O)ccc32)c2ccccc21 tested_system="Cytochrome P450 1A2 (Homo sapiens) (UniProt P05177)" obs_value=inactive
molecule=CN1C(=O)c2ccc([N+](=O)[O-])cc2C1=O tested_system="Cytochrome P450 1A2 (Homo sapiens) (UniProt P05177)" obs_value="20 µM (active)"

Req: Please report the recorded Potency for Cc1cc(Cc2cc(C)cc(C(C)(C)C)c2O)c(O)c(C(C)(C)C)c1 .
Resp: 25.3 µM (active)

Req: Please report the recorded Potency for CCC(C)(Oc1ccc(C2(c3ccc(OC(C)(CC)C(=O)O)cc3)CCCCC2)cc1)C(=O)O (configuration not stated) .
Resp: inactive

Req: Please report the recorded Potency for CC(COc1ccccc1)N(CCCl)Cc1ccccc1 (configuration not stated) .
Resp: inactive

Req: Please report the recorded Potency for CCCCCCCCCCCCCCCCCl .
Resp: inactive

Req: Please report the recorded Potency for O=C(Cl)c1cccc(C(=O)Cl)c1 .
Resp: inactive

Req: Please report the recorded Potency for CC1=C(C=O)C(C)(C)CC=C1 .
Resp: inactive

Req: Please report the recorded Potency for CCc1ccc(C(c2ccc(CC)cc2)C(Cl)Cl)cc1 .
Resp: 40.6 µM (active)

Req: Please report the recorded Potency for O=C1NCC2(CCN(CCc3ccccc3)CC2)O1 .
Resp: inactive

Req: Please report the recorded Potency for Cc1c2oc3c(C)ccc(C(=O)N[C@@H]4C(=O)N[C@H](C(C)C)C(=O)N5CCC[C@H]5C(=O)N(C)CC(=O)N(C)[C@@H](C(C)C)C(=O)O[C@@H]4C)c3nc-2c(C(=O)N[C@@H]2C(=O)N[C@H](C(C)C)C(=O)N3CCC[C@H]3C(=O)N(C)CC(=O)N(C)[C@@H](C(C)C)C(=O)O[C@@H]2C)c(N)c1=O (I: T[dV]P[Sar][NMeV] / II: T[dV]P[Sar][NMeV]; ester I:1-I:C, II:1-II:C; linker I:N-II:N via Actinocin(9to1)) .
Resp: inactive

Req: Please report the recorded Potency for C=C(C)C(=O)O .
Resp: inactive

Req: Please report the recorded Potency for O=C1Nc2ccccc2C1(c1ccc(O)cc1)c1ccc(O)cc1 .
Resp: inactive

Req: Please report the recorded Potency for COc1nc(C)nc(Cl)c1NC1=NCCN1 .
Resp: inactive

Req: Please report the recorded Potency for C=C(C)C1CC=C(C)C(OC(C)=O)C1 (configuration not stated) .
Resp: inactive

====

# tested.system: Cytochrome P450 2C19 (Homo sapiens)
# protocol.text: Cytochrome P450 Family 2 Subfamily C Member 19 (CYP2C19) small molecule antagonists: luciferase reporter qHTS assay (AID 1671197); note: nearly all actives have a fitted effect of over 65% in size
# experimental.context: P450-Glo CYP2C19 enzyme, luciferin luminescence, 1 h; series mostly up to 115 µM
Records with an inconclusive call do not appear. Calls of active or inactive are those of the source. The call rests on the fitted dose curve; in most records, active means well fitted inhibition curve with a large enough effect in the repeat runs; inconclusive means weak or mixed curves; inactive means no such curve, though single readings can be large or run the other way. Starred links: 1 amine or outer side, 2 acyl side, 3 side chain; linkers in the order of their positions; H or OH if unused. Positions of bridges follow the written chain, without caps; N, C: chain ends. Non-standard residues stand in square brackets, D forms with d. Residues, ends and D or L forms follow the SMILES beside them. Chains are numbered I, II in the order given. Actinocin(9to1) = Cc1c2oc3c(C)ccc(C(=O)[*:1])c3nc-2c(C(=O)[*:2])c(N)c1=O; NMeV = CN[C@H](C(=O)O)C(C)C; Sar = CNCC(=O)O
Respond only with the outcome that fits, drawn from yes for active, no for inactive

Req: Hey, what did the test say about Cc1ccnc2c1NC(=O)c1cccnc1N2C1CC1 ?
Resp: no

Req: Hey, what did the test say about OCCN1CCNCC1 ?
Resp: no

Req: Hey, what did the test say about CCCNC(C)C(=O)Nc1ccccc1C (stereo not drawn) ?
Resp: no

Req: Hey, what did the test say about CC(C)(O)CCC(C)(C)O ?
Resp: no

Req: Hey, what did the test say about CCCC(=O)c1ccccc1 ?
Resp: no

Req: Hey, what did the test say about CC[C@@H](N)CO ?
Resp: no

Req: Hey, what did the test say about NCCCCCC(=O)O ?
Resp: no

Req: Hey, what did the test say about C=CC(=O)OCCCCCCCC ?
Resp: no

Req: Hey, what did the test say about COc1ccc(CCN(C)CCCC(C#N)(c2ccc(OC)c(OC)c2)C(C)C)cc1OC (stereo not drawn) ?
Resp: no

Req: Hey, what did the test say about c1cnc2cc3c(cc2n1)C1CNCC3C1 ?
Resp: no

Req: Hey, what did the test say about O=C(O)CCc1ccccc1 ?
Resp: no

Req: Hey, what did the test say about CCN(CC)C(=O)Nc1ccc(OCC(O)CNC(C)(C)C)c(C(C)=O)c1 (stereo not drawn) ?
Resp: no

Req: Hey, what did the test say about N[C@@H]1CONC1=O ?
Resp: no

Req: Hey, what did the test say about O=C(Oc1ccccc1)c1ccccc1O ?
Resp: no

Req: Hey, what did the test say about CC(=O)OCC1=C(C(=O)O)N2C(=O)[C@@H](NC(=O)Cc3cccs3)[C@H]2SC1 ?
Resp: no

Req: Hey, what did the test say about Cc1c2oc3c(C)ccc(C(=O)N[C@@H]4C(=O)N[C@H](C(C)C)C(=O)N5CCC[C@H]5C(=O)N(C)CC(=O)N(C)[C@@H](C(C)C)C(=O)O[C@@H]4C)c3nc-2c(C(=O)N[C@@H]2C(=O)N[C@H](C(C)C)C(=O)N3CCC[C@H]3C(=O)N(C)CC(=O)N(C)[C@@H](C(C)C)C(=O)O[C@@H]2C)c(N)c1=O (I: T[dV]P[Sar][NMeV] / II: T[dV]P[Sar][NMeV]; ester I:1-I:C, II:1-II:C; linker I:N-II:N via Actinocin(9to1)) ?
Resp: no

Req: Hey, what did the test say about CCC(CO)(CO)COCC(CC)(CO)CO ?
Resp: no

Req: Hey, what did the test say about O=C(O)c1cc(Cl)cc(Cl)c1 ?
Resp: no

Req: Hey, what did the test say about CC1COC(=O)O1 (stereo not drawn) ?
Resp: no

Req: Hey, what did the test say about C[N+]1([O-])CCOCC1 ?
Resp: yes

Req: Hey, what did the test say about CC(C)C(=O)c1c(C(C)C)nn2ccccc12 ?
Resp: no

Req: Hey, what did the test say about CCC[C@H](N[C@@H](C)C(=O)N1[C@H](C(=O)O)C[C@@H]2CCCC[C@@H]21)C(=O)OCC ?
Resp: no

Req: Hey, what did the test say about COC(=O)c1cccc(C(=O)OC)c1 ?
Resp: no

Req: Hey, what did the test say about CCC(C)(Oc1ccc(C2(c3ccc(OC(C)(CC)C(=O)O)cc3)CCCCC2)cc1)C(=O)O (stereo not drawn) ?
Resp: no

Req: Hey, what did the test say about CC(C)(C)NCC(O)COc1ccccc1OCC1CCCO1 (stereo not drawn) ?
Resp: no

Req: Hey, what did the test say about C#CC(C)(CC)OC(=O)c1ccccc1C(=O)O (stereo not drawn) ?
Resp: no

Req: Hey, what did the test say about O=C1NCC2(CCN(CCc3ccccc3)CC2)O1 ?
Resp: no

Req: Hey, what did the test say about COC(c1ccccc1)(c1ccccc1)[C@H](Oc1nc(C)cc(C)n1)C(=O)O ?
Resp: no
